System: HCT116
Experiment: efficacy (fitted maximal change in viability relative to DMSO control); higher = less cytotoxic (negative = loss of viability)
Settings: 48 h
Label t when efficacy is at or above -60%; anything below gets f.

{"smiles_text": "O=C(NC1CCOCC1)c1ccc(-c2cc(-c3c[nH]nc3-c3ccccn3)ccn2)cc1", "classification": "t"}
{"smiles_text": "CCn1nnc2c(N3CCOCC3)nc(-c3ccc(NC(=O)Nc4ccc(C(=O)N5CCN(C)CC5)cc4)cc3)nc21", "classification": "f"}
{"smiles_text": "Cc1cc(Nc2cc(CN3CCOCC3)c3nc(C)c(Cc4ccc(Cl)cc4F)n3n2)[nH]n1", "classification": "f"}
{"smiles_text": "NC(=O)c1cccc(-c2cccc(OC(=O)NC3CCCCC3)c2)c1", "classification": "t"}
{"smiles_text": "CNc1nc(C)nc(N[C@H]2CCC[C@@H](C(=O)NCc3ccc(C#N)cc3C(F)(F)F)C2)n1", "classification": "t"}
{"smiles_text": "NC(=O)c1ccc(I)c([N+](=O)[O-])c1", "classification": "t"}
{"smiles_text": "COC1=C(OC)C=C\\2C(=C1)C(=O)N(CCCNCCO)\\C3=C2C(=O)C4=C3C=C5OCOC5=C4", "classification": "f"}

----------
Tested on: HCT116
Test: efficacy (fitted maximal change in viability relative to DMSO control); higher = less cytotoxic (negative = loss of viability)
Settings: 48 h
Structures can show the parent of a compound that is named as a salt.
parameter: efficacy (%)

{"compound": "CN(c1ncccc1CNc1nc(Nc2ccc3c(c2)CC(=O)N3)ncc1C(F)(F)F)[S+](C)(=O)[O-]", "result_units": "%", "recorded_number": -62.3}
{"compound": "CN(C)CCN1C(=O)c2cccc3cc(N)cc(c23)C1=O [Amonafide]", "result_units": "%", "recorded_number": -72.8}
{"compound": "CNC(=O)c1cc(Oc2ccc3nc(N[C@@H]4CCCC[C@H]4O)sc3c2)ccn1", "result_units": "%", "recorded_number": -41.8}
{"compound": "Cc1ccc(NC(=O)Nc2nnc(Sc3ncnc4cc(OCCCN5CCOCC5)ccc34)s2)cc1", "result_units": "%", "recorded_number": -24.1}
{"compound": "CC[C@]1(O)C[C@H]2CN(CCC3=C([NH]C4=C3C=CC=C4)[C@@](C2)(C(=O)OC)C5=CC6=C(C=C5OC)N(C=O)[C@H]7[C@](O)([C@H](OC(C)=O)[C@]8(CC)\\C=C/CN9CC[C@]67[C@H]89)C(=O)OC)C1 [Vincristine sulfate]", "result_units": "%", "recorded_number": -60.7}
{"compound": "Cc1cccc(-c2n[nH]cc2-c2ccc3ncccc3n2)n1", "result_units": "%", "recorded_number": 6.89}
{"compound": "CCCNC(=O)[C@H]1O[C@@H]1C(=O)N[C@H](C(=O)N1CCC[C@H]1C(=O)OC)C(C)CC (some centres not stated)", "result_units": "%", "recorded_number": -88.8}

----------
Recorded measurements of efficacy, one per entry
Test system: HCT116
Assay: efficacy (fitted maximal change in viability relative to DMSO control); higher = less cytotoxic (negative = loss of viability)
Conditions: 48 h

{"smiles_text": "Cc1cc(O)cc2c1[C@]1(C)CC[C@H]3C(C)(C)CCC[C@]3(C)[C@H]1C2", "result_units": "%", "efficacy": 19.8}
{"smiles_text": "CCOC(=O)[C@H](CCc1ccccc1)N[C@H]1CCc2ccccc2N(CC(=O)O)C1=O", "result_units": "%", "efficacy": -8.42}
{"smiles_text": "CCNC(=O)C#Cc1ccc2c(c1)NC(=O)/C2=C(\\Nc1ccc(CN(C)C)cc1)c1ccccc1", "result_units": "%", "efficacy": -104}
{"smiles_text": "CCOc1cc(N2CCC(O)CC2)ccc1Nc1ncc2c(n1)N(C)c1ccccc1C(=O)N2C", "result_units": "%", "efficacy": -80.7}

----------
Tested on: HCT116
Assay: efficacy (fitted maximal change in viability relative to DMSO control); higher = less cytotoxic (negative = loss of viability)
Details: 48 h

{"molecule": "C[C@H](CCC(=O)O)[C@H]1CCC2C3C[C@H](O)[C@@H]4C[C@H](O)CC[C@]4(C)C3CC[C@@]21C (stereo partly drawn)", "result_units": "%", "efficacy": 5.2}
{"molecule": "C[C@@H](O)[C@@H]1NC(=O)[C@H](CCCCN)NC(=O)[C@@H](Cc2c[nH]c3ccccc23)NC(=O)[C@H](Cc2ccccc2)NC(=O)[C@@H](NC(=O)[C@H](N)Cc2ccccc2)CSSC[C@@H](C(=O)N[C@H](CO)[C@@H](C)O)NC1=O [Octreotide]", "result_units": "%", "efficacy": 9.15}
{"molecule": "CCOc1cc(C(=O)N2CCC(N3CCN(C)CC3)CC2)ccc1Nc1ncc2c(n1)N(C1CCCC1)c1ccccc1C(=O)N2C", "result_units": "%", "efficacy": -104}

----------
System: HCT116
Assay: efficacy (fitted maximal change in viability relative to DMSO control); higher = less cytotoxic (negative = loss of viability)
Conditions: 48 h

{"compound": "CNCCN(C)Cc1c[nH]nc1-c1ccc(O[C@H]2C[C@H](OCCC3CCOCC3)C2)cc1", "tested_on": "HCT116", "efficacy, %": -52}
{"compound": "CCN1CCN(Cc2ccc(NC(=O)c3ccc(C)c(/C=C/c4cnc5[nH]ccc5c4OC)c3)cc2C(F)(F)F)CC1 [HG-6-64-1]", "tested_on": "HCT116", "efficacy, %": -96.2}
{"compound": "C=C(C)[C@@H]1CC[C@]2(C(=O)O)CC[C@]3(C)[C@H](CC[C@@H]4[C@@]5(C)CC[C@H](O)C(C)(C)[C@@H]5CC[C@]43C)[C@@H]12 [Betulinic acid]", "tested_on": "HCT116", "efficacy, %": 14.5}
{"compound": "CC(C)c1cc(C(C)C)c(CC(=O)N[S+](=O)([O-])Oc2c(C(C)C)cccc2C(C)C)c(C(C)C)c1 [Avasimibe]", "tested_on": "HCT116", "efficacy, %": -82.3}
{"compound": "CCCCNc1ncc2c(-c3ccc(CN4CCN(C)CC4)cc3)cn(C3CCC(O)CC3)c2n1 (configuration not stated) [UNC-2025]", "tested_on": "HCT116", "efficacy, %": -74.3}
{"compound": "CCCCNc1ncc2c(-c3ccc(F)cc3)nn(C[C@H]3CC[C@H](N)CC3)c2n1 [UNC-569]", "tested_on": "HCT116", "efficacy, %": -83.5}
{"compound": "O=C(O)CSCC(=O)NC1CCSC1=O (configuration not stated) [Erdosteine]", "tested_on": "HCT116", "efficacy, %": 9.04}

----------
This section presents compounds with their documented efficacy values.
Test system: HCT116
Test: efficacy (fitted maximal change in viability relative to DMSO control); higher = less cytotoxic (negative = loss of viability)
Conditions: 48 h
parameter: efficacy (%)

{"compound": "Cc1onc(-c2ccccc2)c1-c1ccc([S+](N)(=O)[O-])cc1", "result_units": "%", "recorded_number": -36.8}
{"compound": "N[S+]([O-])(=O)OC1=CC=C2\\C3=C(CCCCC3)/C(=O)OC2=C1 [Irosustat (STX-64)]", "result_units": "%", "recorded_number": -30.6}
{"compound": "COc1cc(O)c2c(c1)C1OC1C[C@H](O)[C@H](O)C(=O)/C=C\\C[C@H](C)OC2=O (some centres undefined)", "result_units": "%", "recorded_number": -72}
{"compound": "C[S+](=O)([O-])N1CCC(NC(=O)c2[nH]ncc2NC(=O)c2c(Cl)cccc2Cl)CC1", "result_units": "%", "recorded_number": -64.2}

----------
Tested on: HCT116;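 also: Luminescence-based viability readout, five doses per compound, normalized against on-plate DMSO and empty-well controls, followed by dose-response curve fitting for every drug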
Assay: efficacy (fitted maximal change in viability relative to DMSO control); higher = less cytotoxic (negative = loss of viability)
Settings: 48 h
Where a name gives a salt, the structure may show the parent alone.
parameter: efficacy (%)

{"molecule": "Nc1nc(F)nc2c1ncn2[C@@H]1O[C@H](COP(=O)(O)O)[C@@H](O)[C@@H]1O [Fludarabine phosphate]", "tested_on": "HCT116", "recorded_number": -58.2}
{"molecule": "O=C(NOCCO)c1ccc2cncn2c1Nc1ccc(I)cc1F", "tested_on": "HCT116", "recorded_number": -43.9}
{"molecule": "N[S+](=O)([O-])c1ccc([S+](=O)([O-])Nc2cccc3c(Cl)c[nH]c23)cc1 [Indisulam (E7070)]", "tested_on": "HCT116", "recorded_number": -57.8}
{"molecule": "COC1=CC=CC2=C1C(=C(/C(=O)N(C)C3=CC=C(C=C3)C(F)(F)F)C(=O)N2C)/O", "tested_on": "HCT116", "recorded_number": -6.06}
{"molecule": "COc1ccc2cccc(CCNC(C)=O)c2c1", "tested_on": "HCT116", "recorded_number": -12.5}
{"molecule": "COc1ccc([C@@H](O)[C@@H](C)Oc2ccc([C@H]3O[C@H](c4ccc(O[C@H](C)[C@H](O)c5ccc(OC)c(OC)c5)c(OC)c4)[C@H](C)[C@H]3C)cc2OC)cc1OC [Manassantin A]", "tested_on": "HCT116", "recorded_number": -81}
{"molecule": "Clc1ccc(C(Cn2ccnc2)OCc2ccc(Sc3ccccc3)cc2)c(Cl)c1 (centres undefined) [Fenticonazole nitrate]", "tested_on": "HCT116", "recorded_number": -90.5}
{"molecule": "CN1C(=O)/C(=C(NC2=CC=C(I)C=C2F)\\C3=C1\\N=C/N(C[C@@H](O)CO)C3=O)F", "tested_on": "HCT116", "recorded_number": -73.1}
{"molecule": "C[S+](=O)([O-])c1ccc([C@@H](CC2CCCC2)C(=O)Nc2nccs2)cc1", "tested_on": "HCT116", "recorded_number": -67.1}
{"molecule": "CCc1ccc(C(=O)Nc2cc(CN3CCN(C)CC3)cc(C(F)(F)F)c2)cc1C#Cc1cnc2ccnn2c1", "tested_on": "HCT116", "recorded_number": -100}
{"molecule": "CC1=CC=C(C=C1)N(C\\C2=N\\CCN2)C3=CC=CC(=C3)O [Phentolamine mesilate]", "tested_on": "HCT116", "recorded_number": -60}
{"molecule": "COc1ncc(-c2ccc3nccc(-c4ccnnc4)c3c2)cc1N[S+](=O)([O-])c1ccc(F)cc1F", "tested_on": "HCT116", "recorded_number": -74.6}
{"molecule": "COc1ccc([S+](=O)([O-])Nc2cc(-c3csc(C#N)c3)ccc2C)cc1", "tested_on": "HCT116", "recorded_number": -62}
{"molecule": "Cc1nc(-c2cn3c(n2)-c2ccc(-c4cnn(C(C)(C)C(N)=O)c4)cc2OCC3)n(C(C)C)n1", "tested_on": "HCT116", "recorded_number": -77.1}
{"molecule": "O=C1Nc2nc(-c3c(O)cccc3OCC3CC3)cc([C@@H]3CCCNC3)c2CO1 [Bay-65-1942 hydrochloride]", "tested_on": "HCT116", "recorded_number": -90.5}
{"molecule": "O=C(COCC(=O)N1CCN(C(c2ccccc2)c2ccccc2)CC1)Nc1ccc(Cl)cc1C(=O)O", "tested_on": "HCT116", "recorded_number": 6.23}
{"molecule": "COc1cc(Nc2cnc(C#N)c(O[C@H](C)CN(C)C)n2)ncc1-c1cnn(C)c1", "tested_on": "HCT116", "recorded_number": -121}
{"molecule": "O=C(Nc1cccnc1)c1cc(-c2ccnc(F)c2)ccc1OCc1ccccc1", "tested_on": "HCT116", "recorded_number": -24.6}
{"molecule": "CCOc1cc(C(=O)Nc2ccc(Cl)c(-c3nc4ccccc4[nH]3)c2)cc(OCC)c1OCC", "tested_on": "HCT116", "recorded_number": -37.4}
{"molecule": "Nc1ccc(F)cc1NC(=O)c1ccc(CNC(=O)/C=C/c2cccnc2)cc1 [Chidamide]", "tested_on": "HCT116", "recorded_number": -90.4}
{"molecule": "CO[C@H]1/C=C/O[C@@]2(C)Oc3c(C)c(O)c4c(O)c(c(/C=N\\N5CCN(C6CCCC6)CC5)c(O)c4c3C2=O)NC(=O)/C(C)=C\\C=C\\[C@H](C)[C@H](O)[C@@H](C)[C@@H](O)[C@@H](C)[C@H](OC(C)=O)[C@@H]1C", "tested_on": "HCT116", "recorded_number": -59.1}
{"molecule": "N[S+]([O-])(=O)C1=CC=C(NC/2=C/C(=O)C3=CC=CC=C3C2=O)C=C1", "tested_on": "HCT116", "recorded_number": -81.9}
{"molecule": "C=C[C@H]1CN2CCC1C[C@@H]2[C@@H](O)c1ccnc2ccccc12 (some centres undefined) [Cinchonine dihydrochloride]", "tested_on": "HCT116", "recorded_number": -36.1}
{"molecule": "CC(C)[C@@H](N(CCCN)C(=O)C1=CC=C(C)C=C1)C/2=N/C3=CC(=CC=C3C(=O)N2CC4=CC=CC=C4)Cl", "tested_on": "HCT116", "recorded_number": -94.4}
{"molecule": "COc1ccc(COc2cc3oc(=O)c4cc(C(C)O)ccc4c3cc2OC)cc1 (centres undefined)", "tested_on": "HCT116", "recorded_number": -22}
{"molecule": "CCN1C(=O)\\C(=C/C2=C1N=C(NC3=CC=C(N4CCNCC4)C(=C3)F)N=C2)C5=CC=C(Cl)C=C5Cl", "tested_on": "HCT116", "recorded_number": -32.6}
{"molecule": "Cc1cnc(Nc2ccc(OCCN3CCCC3)cc2)nc1Nc1cccc([S+](=O)([O-])NC(C)(C)C)c1", "tested_on": "HCT116", "recorded_number": -109}
{"molecule": "CCN(CC)CCOC1=CC=C(NC2=NC=C3\\C=C(/C(=O)N(C)C3=N2)C4=C(Cl)C=CC=C4Cl)C=C1", "tested_on": "HCT116", "recorded_number": -86.9}
{"molecule": "NC/1=N/C(=O)C2=C([NH]C=C2CCC3=CC=C(C=C3)C(=O)N[C@@H](CCC(O)=O)C(O)=O)N1", "tested_on": "HCT116", "recorded_number": -40.7}
